measured target: GABAA receptor ([35S]-TBPS binding, rat brain cortical membranes)
assay protocol: Steroid inhibition of [35S]-TBPS binding
condition details: 3 nM [35S]-TBPS, in the presence of 5 mM GABA, 90 min at room temp
pIC50: −log10 of the molar value.
# pIC50 annotations

Worked examples follow.
IN: Looking for the measured pIC50 of COC[C@@]1(O)CC[C@H]2[C@@H](CC[C@@H]3[C@@H]2CC[C@@]2(C)[C@H]3[C@@H]3C[C@@H]3[C@@H]2C(C)=O)C1 [Compound No. 16] , can you help?
OUT: > 7.00

IN: Looking for the measured pIC50 of C[C@@]1(O)CC[C@H]2[C@H](CC[C@@H]3[C@@H]2CC[C@]2(C)[C@H](C(=O)Cn4cc(C#N)cn4)[C@H]4C[C@H]4C[C@@H]32)C1 [Compound No. 7] , can you help?
OUT: < 6.00

// below: pIC50 requested for another molecule
IN: Looking for the measured pIC50 of C[C@@]1(O)CC[C@H]2[C@H](CC[C@@H]3[C@@H]2CC[C@@]2(C)[C@H]3C[C@@H]3C[C@@H]3[C@@H]2C(=O)Cn2cc(C#N)cn2)C1 [Compound No. 6] , can you help?
OUT: > 7.00

* * *

measured target: GABAA receptor ([35S]-TBPS binding, rat brain cortical membranes)
assay protocol: Steroid inhibition of [35S]-TBPS binding
condition details: 3 nM [35S]-TBPS, in the presence of 5 mM GABA, 90 min at room temp
# IC50 annotations

Worked examples follow.
IN: Looking for the measured IC50 of Cc1nnnn1C[C@H]1C[C@@H]1[C@H]1CC[C@H]2[C@@H]3CC[C@@H]4C[C@](C)(O)CC[C@@H]4[C@H]3CC[C@]12C , can you help?
OUT: < 100 nM

IN: Looking for the measured IC50 of C[C@@]1(O)CC[C@H]2[C@H](CC[C@@H]3[C@@H]2CC[C@@]2(C)[C@H]3[C@@H]3C[C@@H]3[C@@H]2[C@](C)(O)Cn2cc(C#N)cn2)C1 (single isomer, unassigned) , can you help?
OUT: < 100 nM

IN: Looking for the measured IC50 of Cc1nnnn1C[C@@H]1C[C@H]1[C@H]1CC[C@H]2[C@@H]3CC[C@@H]4C[C@](C)(O)CC[C@@H]4[C@H]3CC[C@]12C , can you help?
OUT: 100 to 1000 nM

IN: Looking for the measured IC50 of C[C@@]1(O)CC[C@H]2[C@H](CC[C@@H]3[C@@H]2CC[C@]2(C)[C@@H]([C@@H]4C[C@H]4Cn4cc(C#N)cn4)CC[C@@H]32)C1 , can you help?
OUT: < 100 nM

// below: IC50 requested for another compound
IN: Looking for the measured IC50 of C[C@H](Cn1cc(C#N)cn1)[C@H]1[C@@H]2C[C@@H]2C[C@H]2[C@@H]3CC[C@@H]4C[C@](C)(O)CC[C@@H]4[C@H]3CC[C@]12C , can you help?
OUT: < 100 nM
